The values you see were collected from PubChem BioAssay AID463173.

# Tested on: DeltatarO mutant
# Assay Summary: S. aureus survival, RN4220 and DeltatarO strains – OD600, teichoic acid synthesis inhibitors, primary screen (AID 463173)
# Measurement Conditions: S. aureus RN4220 wild type/DeltatarO growth, OD600, 18 h, screened at 18.75 µg/mL (by protocol)
The whole screen tested about 52,000 compounds, of which about 4,300 (8.3%) were called active. No stated cut-off is given here; in the data, active means survival mostly below about 52% (no sharp cut-off); inactive means mostly above about 56%. Many of the other results were omitted from the sample, so actives are more common in it than they were.
Possible outcomes: YES = active, NO = inactive

INSERT INTO results (test_smiles, category_label) VALUES
  ('CSc1ccc(CCNC(=O)Cn2nc(C)n3c(cc4sccc43)c2=O)cc1', 'NO'),
  ('Cc1ccc2cccc(NC(=O)COc3ccccc3[N+](=O)[O-])c2n1', 'NO'),
  ('CC(=O)c1ccc(NC(=O)COc2ccccc2-c2nc(C)no2)cc1', 'NO'),
  ('Cc1cccc(-c2noc(-c3ccccc3OCC(=O)Nc3ccccc3[N+](=O)[O-])n2)c1', 'NO'),
  ('Cc1noc(-c2ccccc2OCC(=O)Nc2ccccc2[N+](=O)[O-])n1', 'YES'),
  ('Brc1ccc(-c2ccc(CNCCSc3nnnn3-c3ccccc3)o2)cc1', 'NO'),
  ('CCOc1cc(CNCCSc2nnnn2-c2ccccc2)ccc1OC', 'NO'),
  ('COc1cc(OC)c(OC)cc1CNCCSc1nnnn1-c1ccccc1', 'NO'),
  ('Cc1ccc(-c2noc(-c3ccccc3OCC(=O)Nc3ccccc3[N+](=O)[O-])n2)cc1', 'NO'),
  ('CCn1c(SCC(=O)Nc2cc(Cl)ccc2OC)nc2c([nH]c3ccccc32)c1=O', 'NO');
